TESTED_ON: MTHFD1 recombinant human enzyme (Homo sapiens)
METHOD_DESCRIPTION: MTHFD1 inhibition assay (NAD(P)H-Glo luminescence)
CONDITIONS_USED: MTHFD1 IC50, specific value, average of multiple repeats
TEST_READOUT: pIC50
Note on units: pIC50 is unitless, being -log10 of a concentration expressed in mol/L.

Could you share which pIC50 value was measured for Cc1c(N2CCN(C)[C@@H](C)C2)ccc2c3c(c(=O)oc12)CN(C(=O)c1ccc(NS(C)(=O)=O)c(OC(F)(F)F)c1)CC3 [Reference Example 1, reference compound] ?
6.39

###

Parameter: IC50. Scope: all listed entries.
TESTED_ON: MTHFD2 recombinant human enzyme (Homo sapiens, UniProt P13995)
Sequence (P13995 36-350): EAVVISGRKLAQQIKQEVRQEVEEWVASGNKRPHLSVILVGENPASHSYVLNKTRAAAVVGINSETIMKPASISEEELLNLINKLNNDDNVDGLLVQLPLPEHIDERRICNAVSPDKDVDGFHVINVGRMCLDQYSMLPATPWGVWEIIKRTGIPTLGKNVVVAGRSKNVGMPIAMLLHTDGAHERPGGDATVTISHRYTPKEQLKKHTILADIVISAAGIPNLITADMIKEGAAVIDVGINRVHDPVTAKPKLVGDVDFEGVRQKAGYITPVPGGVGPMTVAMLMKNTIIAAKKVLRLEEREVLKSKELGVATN
METHOD_DESCRIPTION: MTHFD2 inhibition assay (NAD(P)H-Glo luminescence)

COMPOUND_STRUCTURE: COC[C@H]1CN(c2ccc3c4c(c(=O)oc3c2C)CN(C(=O)c2ccc(C(=O)NS(=O)(=O)C3(C)CC3)c(OC3CCCC3)c2)CC4)CCN1C
TEST_READOUT: IC50
OBSERVED_MEASUREMENT: 10 to 100 nM

COMPOUND_STRUCTURE: CCOc1cc(C(=O)N2CCc3c(c(=O)oc4c(C)c(N5CCN(C)[C@@H](COC)C5)cc(CC)c34)C2)c(F)cc1C(=O)NS(=O)(=O)N1CCCC1
TEST_READOUT: IC50
OBSERVED_MEASUREMENT: 10 to 100 nM

Which measured IC50 belongs to `COC[C@H]1CN(c2ccc3c4c(c(=O)oc3c2C)CN(C(=O)c2ccc(C(=O)NS(=O)(=O)N(C)C(C)C)c(OC3CCCC3)c2F)CC4)CCN1C` , tested on MTHFD2 recombinant human enzyme (Homo sapiens, UniProt P13995)?
1 to 10 nM

###

TESTED_ON: MTHFD1 recombinant human enzyme (Homo sapiens)
Sequence (P11586 2-291 limits assumed): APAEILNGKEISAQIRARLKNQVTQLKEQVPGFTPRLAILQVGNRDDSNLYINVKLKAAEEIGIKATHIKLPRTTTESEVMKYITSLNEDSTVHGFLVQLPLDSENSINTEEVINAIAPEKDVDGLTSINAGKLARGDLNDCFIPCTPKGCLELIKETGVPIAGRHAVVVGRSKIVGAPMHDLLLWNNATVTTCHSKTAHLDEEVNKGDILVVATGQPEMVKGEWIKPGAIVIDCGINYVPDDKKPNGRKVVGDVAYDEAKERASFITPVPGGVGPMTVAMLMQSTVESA
METHOD_DESCRIPTION: MTHFD1 inhibition assay (NAD(P)H-Glo luminescence)
CONDITIONS_USED: MTHFD1 IC50, recombinant human enzyme 200 nM, NADP, band
pIC50: −log10 of the molar value.
TEST_READOUT: pIC50

COMPOUND_STRUCTURE: COC[C@H]1CN(c2cc(Cl)c3c4c(c(=O)oc3c2C)CN(C(=O)c2ccc(C(=O)NS(=O)(=O)N3CC5(CCC5)C3)c(OC)c2)CC4)CCN1C
TEST_READOUT: pIC50
OBSERVED_MEASUREMENT: 6.00 to 7.00
//
COMPOUND_STRUCTURE: COC[C@H]1CN(c2ccc3c4c(c(=O)oc3c2C)CN(C(=O)c2ccc(C(=O)NS(=O)(=O)C3(C)CC3)c(OC3CCCC3)c2)CC4)CCN1C
TEST_READOUT: pIC50
OBSERVED_MEASUREMENT: 7.00 to 8.00
//
COMPOUND_STRUCTURE: COC[C@H]1CN(c2cc(C)c3c4c(c(=O)oc3c2C)CN(C(=O)c2ccc(C(=O)NS(=O)(=O)N3CCCC3)c(OCC(F)(F)F)c2F)CC4)CCN1C
TEST_READOUT: pIC50
OBSERVED_MEASUREMENT: 7.00 to 8.00
//
COMPOUND_STRUCTURE: COC[C@H]1CN(c2cc(Cl)c3c4c(c(=O)oc3c2C)CN(C(=O)c2cc(N(C)C)c(C(=O)NS(=O)(=O)N3CCC[C@@H]3C(F)(F)F)cc2F)CC4)CCN1C
TEST_READOUT: pIC50
OBSERVED_MEASUREMENT: 6.00 to 7.00
//
COMPOUND_STRUCTURE: COC[C@H]1CN(c2cc(C)c3c4c(c(=O)oc3c2C)CN(C(=O)c2ccc(C(=O)NS(=O)(=O)N(C)C)c(OC3CCC3)c2F)CC4)CCN1C
TEST_READOUT: pIC50
OBSERVED_MEASUREMENT: 8.00 to 9.00

Could you share which pIC50 value was measured for `COC[C@H]1CN(c2cc(Cl)c3c4c(c(=O)oc3c2C)CN(C(=O)c2cc(N(C)C)c(C(=O)NS(=O)(=O)N3CC5(CCC5)C3)cc2F)CC4)CCN1C` ?
6.00 to 7.00
